Origin of the recorded values: patent US11566022B2

- tested_system: HiBit-WIZ fusion protein (Homo sapiens, UniProt O95785+Q96SW2)
- Sequence (O95785 whole entry, the tested form may be a part): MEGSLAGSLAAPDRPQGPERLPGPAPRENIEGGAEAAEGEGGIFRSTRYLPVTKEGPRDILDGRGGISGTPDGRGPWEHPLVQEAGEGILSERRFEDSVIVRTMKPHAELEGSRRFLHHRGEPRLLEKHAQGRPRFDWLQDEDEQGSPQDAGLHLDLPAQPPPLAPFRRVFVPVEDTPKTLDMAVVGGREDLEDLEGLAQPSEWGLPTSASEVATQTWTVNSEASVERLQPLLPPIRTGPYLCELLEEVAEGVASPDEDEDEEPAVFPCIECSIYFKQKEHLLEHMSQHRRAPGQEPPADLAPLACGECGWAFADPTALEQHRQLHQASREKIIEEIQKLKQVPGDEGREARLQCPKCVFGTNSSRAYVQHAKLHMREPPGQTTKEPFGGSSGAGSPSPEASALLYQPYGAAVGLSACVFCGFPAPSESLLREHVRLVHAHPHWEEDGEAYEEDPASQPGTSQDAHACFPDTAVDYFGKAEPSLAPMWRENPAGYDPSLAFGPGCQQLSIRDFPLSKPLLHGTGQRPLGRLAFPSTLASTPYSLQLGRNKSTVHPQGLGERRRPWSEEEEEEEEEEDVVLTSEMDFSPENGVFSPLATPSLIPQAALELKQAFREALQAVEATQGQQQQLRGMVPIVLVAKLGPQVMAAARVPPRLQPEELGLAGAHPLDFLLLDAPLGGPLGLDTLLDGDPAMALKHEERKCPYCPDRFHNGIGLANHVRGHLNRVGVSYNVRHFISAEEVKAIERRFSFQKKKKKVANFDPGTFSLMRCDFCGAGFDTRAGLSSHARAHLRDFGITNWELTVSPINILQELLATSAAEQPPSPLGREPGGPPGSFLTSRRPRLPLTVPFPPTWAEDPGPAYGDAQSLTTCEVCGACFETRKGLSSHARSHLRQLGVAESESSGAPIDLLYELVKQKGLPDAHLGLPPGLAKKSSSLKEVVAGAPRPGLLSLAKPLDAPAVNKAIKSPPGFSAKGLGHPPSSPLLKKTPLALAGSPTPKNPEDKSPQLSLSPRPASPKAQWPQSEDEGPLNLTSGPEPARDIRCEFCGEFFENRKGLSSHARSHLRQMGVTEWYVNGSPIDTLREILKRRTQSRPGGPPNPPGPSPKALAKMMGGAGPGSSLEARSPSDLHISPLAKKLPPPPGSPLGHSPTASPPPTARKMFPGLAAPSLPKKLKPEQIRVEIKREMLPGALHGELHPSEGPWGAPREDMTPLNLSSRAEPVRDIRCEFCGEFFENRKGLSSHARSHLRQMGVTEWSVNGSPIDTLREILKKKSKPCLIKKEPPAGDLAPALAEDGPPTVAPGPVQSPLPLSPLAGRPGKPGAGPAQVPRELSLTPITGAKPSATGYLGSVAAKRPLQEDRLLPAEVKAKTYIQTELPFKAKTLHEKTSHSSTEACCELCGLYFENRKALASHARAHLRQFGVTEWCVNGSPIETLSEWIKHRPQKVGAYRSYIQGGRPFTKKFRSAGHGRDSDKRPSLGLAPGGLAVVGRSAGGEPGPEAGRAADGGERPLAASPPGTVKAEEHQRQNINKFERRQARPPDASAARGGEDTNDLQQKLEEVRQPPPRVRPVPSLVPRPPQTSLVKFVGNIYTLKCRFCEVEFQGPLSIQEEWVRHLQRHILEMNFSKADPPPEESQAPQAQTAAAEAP
- Sequence (Q96SW2 whole entry, the tested form may be a part): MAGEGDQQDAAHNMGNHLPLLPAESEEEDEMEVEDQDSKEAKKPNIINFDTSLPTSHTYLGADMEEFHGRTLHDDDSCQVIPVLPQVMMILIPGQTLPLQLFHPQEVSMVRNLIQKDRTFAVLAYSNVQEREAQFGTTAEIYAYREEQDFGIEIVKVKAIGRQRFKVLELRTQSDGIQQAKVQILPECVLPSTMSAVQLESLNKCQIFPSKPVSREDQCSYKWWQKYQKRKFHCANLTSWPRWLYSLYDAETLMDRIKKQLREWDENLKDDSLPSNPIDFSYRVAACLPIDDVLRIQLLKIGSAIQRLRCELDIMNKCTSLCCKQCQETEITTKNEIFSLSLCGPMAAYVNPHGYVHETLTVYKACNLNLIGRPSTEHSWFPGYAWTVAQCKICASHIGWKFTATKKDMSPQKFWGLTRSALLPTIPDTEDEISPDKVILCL
- Sequence (Q16531 whole entry partner, the tested form may be a part): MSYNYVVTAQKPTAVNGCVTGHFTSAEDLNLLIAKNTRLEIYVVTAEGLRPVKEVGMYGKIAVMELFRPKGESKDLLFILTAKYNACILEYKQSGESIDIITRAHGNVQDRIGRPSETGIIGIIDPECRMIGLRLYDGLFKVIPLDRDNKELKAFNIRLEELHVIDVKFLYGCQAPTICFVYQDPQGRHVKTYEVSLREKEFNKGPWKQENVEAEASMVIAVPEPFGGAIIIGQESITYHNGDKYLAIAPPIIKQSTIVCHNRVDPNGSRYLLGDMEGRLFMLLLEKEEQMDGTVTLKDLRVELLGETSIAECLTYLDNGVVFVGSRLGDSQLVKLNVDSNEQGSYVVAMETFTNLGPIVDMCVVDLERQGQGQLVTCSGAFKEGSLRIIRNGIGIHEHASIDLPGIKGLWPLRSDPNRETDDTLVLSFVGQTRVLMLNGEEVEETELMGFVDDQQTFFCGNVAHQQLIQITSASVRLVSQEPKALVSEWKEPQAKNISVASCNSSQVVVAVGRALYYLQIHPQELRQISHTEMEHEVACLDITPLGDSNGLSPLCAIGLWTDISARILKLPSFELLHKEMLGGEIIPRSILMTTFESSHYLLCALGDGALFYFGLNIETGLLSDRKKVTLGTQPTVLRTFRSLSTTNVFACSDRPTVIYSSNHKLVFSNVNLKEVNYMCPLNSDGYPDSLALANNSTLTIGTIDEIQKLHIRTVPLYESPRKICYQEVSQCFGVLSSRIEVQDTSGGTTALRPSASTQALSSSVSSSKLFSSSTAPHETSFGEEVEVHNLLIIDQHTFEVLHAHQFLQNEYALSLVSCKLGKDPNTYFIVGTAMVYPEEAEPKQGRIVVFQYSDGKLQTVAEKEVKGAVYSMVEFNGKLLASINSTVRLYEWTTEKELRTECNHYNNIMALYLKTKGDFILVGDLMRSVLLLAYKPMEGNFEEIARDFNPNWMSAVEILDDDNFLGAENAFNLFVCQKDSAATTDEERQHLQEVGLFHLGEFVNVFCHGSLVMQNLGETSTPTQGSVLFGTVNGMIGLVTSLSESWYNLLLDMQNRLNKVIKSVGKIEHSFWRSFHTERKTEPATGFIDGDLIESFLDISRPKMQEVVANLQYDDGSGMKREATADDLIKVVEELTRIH
- assay_summary: Quantification of WIZ protein levels in HiBit tag fusion protein assay (WIZ HiBit assay in 293T cells)
- Format: cell-based
- stated_conditions: WIZ HiBit assay in 293T cells; 10-point, 5-fold dose response, highest concentration 25 μM, about 18 hours; read-out: WIZ AC50
readout_label: DC50

The cases that follow already have their DC50 on record.
{"molecule": "CCc1cc(C(=O)N2CCCC[C@H]2COc2ccc3c(c2)CN(C2CCC(=O)NC2=O)C3=O)on1 (stereo partly drawn) [Compound I-72ek]", "readout_label": "DC50", "value_measured": "> 25 µM"}
{"molecule": "O=C1CCC(N2Cc3cc(OC[C@@H]4CCCCN4C(=O)[C@H]4CCN(Cc5ccccc5)C4)ccc3C2=O)C(=O)N1 (stereo partly drawn) [Compound I-72cy]", "readout_label": "DC50", "value_measured": "> 25 µM"}

Attention now shifts to the item below.
// returns reported DC50 for input Cn1c(CN2CCCC[C@H]2COc2ccc3c(c2)CN(C2CCC(=O)NC2=O)C3=O)nc2ccccc21 (stereo partly drawn) [Compound I-50ap] > 25 µM
